The reader will find Ki measurements below, all made with UniProtKB P00734.

structure: CN(C)C(=N)c1ccc(/C=C2/CCCC/C(=C/c3ccc(C(=N)N)cc3)C2=O)cc1
units.label: nM
Ki: 1390

structure: N=C(N)c1ccc(/C=C2/CCCCCCC/C(=C/c3ccc(C(=N)N)cc3)C2=O)cc1
units.label: nM
Ki: 741

structure: N=C(N)c1ccc(/C=C2/CCC/C(=C/c3ccc(C(=N)N)cc3)C2=O)cc1
units.label: nM
Ki: 1340

structure: N=C(N)c1cccc(/C=C2/CCCC/C(=C\c3cccc(C(=N)N)c3)C2=O)c1
units.label: nM
Ki: 1000

structure: N=C(N)c1cccc(/C=C2/CCCC/C(=C/c3cccc(C(=N)N)c3)C2=O)c1
units.label: nM
Ki: 1360
